Where do the numbers come from? From PubChem BioAssay (NCATS).

biological target: Cytochrome P450 2C19 (Homo sapiens) (UniProt P33261); assay: qHTS Assay for Inhibitors and Substrates of Cytochrome P450 2C19 (AID 899); details: recombinant CYP2C19, luciferin-H EGE luminescence; series mostly up to 57.1 µM; note: nearly all actives have a fitted effect of over 60% in size
Sequence (P33261 whole entry, looked up): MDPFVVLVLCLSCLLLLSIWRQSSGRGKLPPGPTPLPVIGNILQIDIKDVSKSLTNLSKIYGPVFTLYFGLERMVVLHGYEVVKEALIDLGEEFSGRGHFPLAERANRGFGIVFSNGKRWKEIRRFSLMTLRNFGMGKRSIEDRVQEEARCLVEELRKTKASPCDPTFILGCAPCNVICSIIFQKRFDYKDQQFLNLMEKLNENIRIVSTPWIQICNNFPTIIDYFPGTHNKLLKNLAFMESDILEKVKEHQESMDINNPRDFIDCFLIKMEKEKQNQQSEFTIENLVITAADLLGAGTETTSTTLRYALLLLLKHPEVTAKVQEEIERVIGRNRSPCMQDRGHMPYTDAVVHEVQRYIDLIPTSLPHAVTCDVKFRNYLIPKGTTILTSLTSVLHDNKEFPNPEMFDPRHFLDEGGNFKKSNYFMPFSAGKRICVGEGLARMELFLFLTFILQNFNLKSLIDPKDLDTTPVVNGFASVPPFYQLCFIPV
Records with an inconclusive call do not appear. Active and inactive are the calls of the source. Calls come from the whole dose curve; as a rule, active = well fitted inhibition curve with a large enough effect; inconclusive = small, poorly fitted or top-dose-only effect; inactive = no such curve, though single readings can be large or run the other way.
Permitted responses: active, inactive

Please let me know the test result on file for "Nc1ncnc2c1ncn2[C@@H]1O[C@@H](COP(=O)(O)OP(=O)(O)OP(=O)(O)OP(=O)(O)OC[C@@H]2O[C@@H](n3cnc4c(N)ncnc43)[C@@H](O)[C@H]2O)[C@H](O)[C@@H]1O" .
inactive

Also "COc1cc(/C=C\C(=O)CC(=O)/C=C\c2ccc(O)c(OC)c2)ccc1O" , if possible.
active

Also "NCCC[C@@H](CC(=O)N[C@@H]1CCCC[C@H]1C(=O)N[C@H](CC(=O)N[C@@H](CCC(=O)O)CC(=O)O)Cc1ccccc1)NC(=O)C[C@H](CO)NC(=O)[C@@H]1CNCC[C@H]1N" , if possible.
inactive
